# Test system: West Nile virus (WNV)
# assay method text: microbe, parasite or virus in culture
# run parameters: Vero, 24 h, read-out: EC50 WNV
Exam item: assign label 1 to entries whose EC50 is below 1 µM and label 0 to entries at or above 1 µM. Note that a value of exactly 1 µM receives label 0.

> print(dat)
                    structure.smiles.string    group
1  O=C(OCCCCCCCCCCCCOC(=O)c1cc(O)c(O)c(O)c1)c1cc(O)c(O)c(O)c1  label 1
2  O=C(OCCCCCCCCOC(=O)c1cc(O)c(O)c(O)c1)c1cc(O)c(O)c(O)c1  label 0
3           CCCCCCCCOC(=O)c1cc(O)c(O)c(O)c1  label 0
4  O=C(NCCCCCCCCCCCCNC(=O)c1cc(O)c(O)c(O)c1)c1cc(O)c(O)c(O)c1  label 0
5  O=C(NCCCCCCCCCCCCNC(=O)c1ccc(O)c(O)c1O)c1ccc(O)c(O)c1O  label 1
